The values you see were collected from PubChem BioAssay (NCI).

- System: HL-60(TB) leukemia
- Experiment description: NCI-60 one-dose screen, 48 h
- Measurement setup: 10 µM unless noted
This is part of a sample that, as a whole, favours compounds with a hit. Of some 83,000 tested, about 20% had one in any assay. The source made the active and inactive calls. The calls were made as follows: active = growth percent below 10; inactive = the rest.
Classes to choose from: YES for active, NO for inactive

For this molecule, state the assay outcome: `CCCCCCCCCC(=O)Oc1ccc(/C(=C(/C)Cc2cccc(OC)c2)c2ccc(OCCN(C)C)cc2)cc1`
NO

Consider next the molecule `COc1ccc(-c2cs/c(=N\N=C\c3ccc(O)cc3O)n2/N=C/c2ccc(O)cc2O)cc1` in the same way.
YES

Consider next the molecule `Oc1ccc(Nc2ccccc2)cc1` in the same way.
NO

Consider next the molecule `Cn1c(=O)c2nc(SCc3ccccc3)n(C)c2n(C)c1=O` in the same way.
NO

Consider next the molecule `C#CC#CC#CC#CC#CC#CC#CC#CC[C@@H]1OC[C@H](COC(=O)O[C@@H](C(=O)O[C@H]2C[C@@]3(O)[C@@H](OC(=O)c4ccccc4)[C@@H]4[C@]5(OC(C)=O)CO[C@@H]5C[C@H](O)[C@@]4(C)C(=O)[C@H](OC(C)=O)C(=C2C)C3(C)C)[C@@H](NC(=O)c2ccccc2)c2ccccc2)O1` in the same way.
YES

Consider next the molecule COc1cc2c(cc1OC)C(=O)C(CC1CCN(C(=O)Nc3ccc(C)cc3)CC1)C2 (stereo not drawn) in the same way.
NO

Consider next the molecule `C/C=C/C(N)=O` in the same way.
NO

Consider next the molecule `COC(=O)[C@H](C(C)C)n1c(=O)c2cc(OC)c(OC)cc2c2cnc3[nH]ccc3c21` in the same way.
NO

Continuing:
For this molecule, state the assay outcome: `Cn1cc(-c2nc(-c3c[nH]c4ccccc34)cs2)c2cccnc21`
YES

Consider next the molecule `C[C@@H]1C[C@H]2C(=O)O[C@@H](C)[C@H](NC(=O)[C@H](Cc3cc(F)cc(F)c3)NC(=O)Nc3ccc(C4CC4)cc3F)C(=O)N3CCC[C@H]3C(=O)N3CCCC[C@H]3C(=O)N[C@@H](C)C(=O)N2C1` in the same way.
NO

Consider next the molecule `CC(=O)Cc1ccccn1` in the same way.
NO

Consider next the molecule `CCOc1c(OC)cc2c(c1O)C(=O)N[C@@H]1[C@@H](O)[C@@H](O)[C@H](O)C[C@@H]21` in the same way.
NO

Consider next the molecule `Cc1cnc(C(=O)Nc2nc3ccc(S(=O)(=O)Nc4ccc(C(C)(C)C)cc4)cc3[nH]2)cn1` in the same way.
YES

Consider next the molecule `CSc1nc(N)n2nccc2n1` in the same way.
NO

Consider next the molecule `O=C(NOCCO)c1ccc2cncn2c1Nc1ccc(I)cc1F` in the same way.
NO

Consider next the molecule `O=C1NC(SCc2ccc(F)cc2)=N/C1=C/c1cccc(OCc2ccc(Cl)cc2)c1` in the same way.
NO

Consider next the molecule `CCOC(=O)Nc1ccc2nc(-c3cscn3)[nH]c2c1` in the same way.
NO

Consider next the molecule `N=C(N)c1ccc(-c2ccc(-c3ccc(Cl)cc3Cl)o2)nc1` in the same way.
YES
